Values from PubChem BioAssay

Tested on: XIP peptide (Xip251-270) binding
Experiment: small-molecule binders of XIP peptide, primary screen, biochemical, small-molecule microarray, fluorescence 635/667 nm, 0.1 µg/mL protein (AID 1182)
Experimental parameters: fluorescent protein binding, 635 nm, higher = more signal, called active from +8 up or from −8 down
Entries get a class label from measured composite z-score. See ranges: low group (below 0.4), middle group (0.4 to below 1), high group (1 or more)

Molecule	Discrete label
CCOC(=CC(=O)OC)CC(O)c1cccc(Cl)c1 (centres undefined)	high group
C=CC[C@@H](OC(=O)Nc1ccc(OC)cc1)c1ccc(OCCO)cc1	middle group
CC(=O)NCCCC[C@@H]1NC(=O)[C@@H]2C[C@H](C(=O)O)[C@H](c3ccc(O)cc3)N2C1=O	high group
C#CCNC(=O)[C@H](Cc1ccccc1)NC(=O)[C@@H](N=[N+]=[N-])C(C)C	low group
C[C@]12C(=O)N(CCCCCCO)[C@@H]3C(=O)N(c4ccc(Cl)cc4)CC=CC31O[C@@H]1/C=C\CCCOC(=O)C12 (some centres undefined)	low group
CCOC(=O)C[C@H]1[C@H](OC(=O)c2ccc(C(=O)c3ccccc3)cc2)[C@@H](NC(=O)c2ccc3ccccc3c2)c2cc(OCCCO)ccc2N1C(=O)c1ccccc1	high group
C=C(C(=O)CC[C@H](OC(=O)c1cccnc1)c1ccc(CO)o1)C(C)C	high group
CN1C(=O)[C@@]2(CCS(=O)(=O)c3ccccc3)N=C(c3ccc(OCCCO)cc3)O[C@H]2c2ccccc21	middle group

* * *

Experiment: Plasmodium falciparum growth inhibition, primary screen, strain 3D7, DAPI fluorescence, 100 nL (AID 1184);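 note: parasites grown inside human red blood cells in medium with human serum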
Experimental parameters: P. falciparum 3D7 growth, 3 d, higher = more signal

Molecule	z-score
C[C@]12C(=O)N(CCCCCCO)[C@@H]3C(=O)N(c4ccc(Cl)cc4)CC=CC31O[C@@H]1/C=C\CCCOC(=O)C12 (some centres undefined)	-0.692
COCC(=C=CC[C@H](O)c1ccc(OCCO)cc1)C[C@H](O)COCc1ccccc1	-2.74
[N-]=[N+]=Nc1ccccc1C[C@]1(C(=O)NCc2ccccc2)N=C(c2ccc(OCCCO)cc2)O[C@H]1c1ccccc1	-2.07
COc1ccc(NN2C(C(O)c3ccco3)C=CC3C(=O)N(C4CCCCC4)C(=O)C32)cc1 (centres undefined)	-0.244

* * *

Experiment: small-molecule microarray binders of probe aDKK1, primary screen, biochemical, biotinylated probe, 635/667 nm fluorescence (AID 1099);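 note: score merges 667nm spot fluorescence with signal to noise across triplicate slides; reference of the scale not given here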
Experimental parameters: higher = more signal

Compound	composite z-score
O=C1OCC=C[C@H]2OC34C=CCN(c5ccc(Cl)cc5)C(=O)[C@H]3N(CCCCCO)C(=O)[C@@H]4[C@@H]12 (stereo partly specified)	-0.204
CCCC[C@@H]1C[C@H]1[C@@H](NC(=O)c1ccccc1)c1ccc(Cl)cc1	0.15
CC(C)N1CC=CC23O[C@@H]4C=CCOC(=O)[C@@H]4[C@H]2C(=O)N(C(C)CO)[C@@H]3C1=O (stereo partly specified)	-0.162
CN(C)C(=O)[C@]1(CCC(=O)OC(C)(C)C)N=C(c2ccc(OCCCO)cc2)O[C@@H]1c1ccccc1	0.937
O=C1O[C@@H](c2ccccc2)[C@@H](c2ccccc2)N2[C@@H](c3ccccc3OCCO)[C@]3(C(=O)Nc4ccccc43)[C@@H](C(=O)NC[C@H](O)c3ccccc3)[C@H]12	0.597
COc1cc(OC)c(C(O)C2C=CC3C(=O)N(c4ccccc4)C(=O)C3N2Nc2ccc(C#N)cc2)cc1Br (stereo unspecified)	1.56
O=c1cccc(-c2ccc(C(F)(F)F)cc2)o1	-0.0458
COC(=O)C1(Cc2ccccc2)C=C2C(=C(c3ccccc3)C(=O)C2C)CN1 (stereo unspecified)	1.88
COC(=O)[C@@]1(Cc2ccccc2)[C@H]2c3cc(C(=O)N4CCCC4)n(Cc4cc(F)cc5c4OCOC5)c3C[C@H]2CN1C(=O)c1ccccc1	0.513
C=CC[C@]1(C(=O)N(C)C)N=C(c2ccc(OCCCO)cc2)O[C@H]1c1ccccc1N=[N+]=[N-]	0.776
COC(=O)[C@@]1(Cc2ccccc2)[C@H]2c3cc(C(=O)N4CCCC4)n(Cc4ccsc4Br)c3C[C@H]2CN1C(=O)c1ccccc1	1.13
O=C1NCC(=O)N2[C@@H]1C[C@@H](C(=O)O)[C@H]2c1ccc(O)cc1	-0.0052
CCCCN1CC=CC23O[C@@H]4C=CCOC(=O)[C@@H]4[C@H]2C(=O)N(C(C)CO)[C@@H]3C1=O (stereo partly specified)	0.198
O=C(NC1CC1)[C@@H]1c2ccccc2C(=O)N(Cc2ccccc2)[C@H]1c1ccc(CO)cc1	-0.474
CCOC(=O)[C@H]1C/C=C/C[C@H](C(=O)OCC)C(=O)O[C@H]2[C@@H](OC)O[C@H](CO)[C@@H](OC(=O)CCc3ccccc3)[C@@H]2OC1=O	-0.41
Cc1ccc(S[C@]2(C(=O)NC(C)C)CC(=O)N(C3Cc4ccccc4C3)[C@@H]2c2ccc(CO)cc2I)cc1	-0.253
